- System: Staphylococcus aureus
- measurement_notes: Antibacterial activity against Staphylococcus aureus ATCC 25923
- Assay type: functional
The reader will find reported MIC values listed item by item below.
endpoint_name: MIC (µg/mL)

molecule	endpoint_name	measurement_unit	value_modifier	numeric_result
CCCCCCCCC/C=C/CC/C=C/[C@@H](O)[C@H](CO[C@@H]1OC(CO)[C@@H](O)C(O)C1O)NC(=O)[C@H](O)CCCCCCCCCCCCCC (stereo not given in full)	MIC	µg/mL	>	160
CCCCCCCC/C=C/CCCCCCCCCCCCCC[C@@H](O)C(=O)N[C@@H](CO[C@@H]1OC(CO)[C@@H](O)C(O)C1O)[C@H](O)[C@H](O)CCC/C=C/CCCCCCCCC (stereo not given in full)	MIC	µg/mL	>	160
O=C(O)c1cn(C2CC2)c2cc(N3CCNCC3)c(F)cc2c1=O	MIC	µg/mL	=	0.5
CCCCCCCCC/C=C/CCC[C@@H](O)[C@@H](O)[C@H](CO[C@@H]1OC(CO)[C@@H](O)C(O)C1O)NC(=O)[C@H](O)CCCCCCCCCCCCCCCCCCCCCC (stereo not given in full)	MIC	µg/mL	>	160
CCCCCCCC/C=C/CCCCCCCCCCCC[C@@H](O)C(=O)N[C@@H](CO[C@@H]1OC(CO)[C@@H](O)C(O)C1O)[C@H](O)[C@H](O)CCC/C=C/CCCCCCCCC (stereo not given in full)	MIC	µg/mL	=	160

All values here come from ChEMBL document CHEMBL1136478.
